Attribution: patent US11318157B2

- subject_of_test: PRMT5-MEP50 enzyme (Homo sapiens, UniProt O14744)
- Construct: One virus expresses full length human PRMT5 with Flag-tag at N-terminus; Flag (N); purchased Charles River (Argenta); host or cells: insect cells (Sf9), baculovirus co-infection
- Sequence (O14744 whole entry): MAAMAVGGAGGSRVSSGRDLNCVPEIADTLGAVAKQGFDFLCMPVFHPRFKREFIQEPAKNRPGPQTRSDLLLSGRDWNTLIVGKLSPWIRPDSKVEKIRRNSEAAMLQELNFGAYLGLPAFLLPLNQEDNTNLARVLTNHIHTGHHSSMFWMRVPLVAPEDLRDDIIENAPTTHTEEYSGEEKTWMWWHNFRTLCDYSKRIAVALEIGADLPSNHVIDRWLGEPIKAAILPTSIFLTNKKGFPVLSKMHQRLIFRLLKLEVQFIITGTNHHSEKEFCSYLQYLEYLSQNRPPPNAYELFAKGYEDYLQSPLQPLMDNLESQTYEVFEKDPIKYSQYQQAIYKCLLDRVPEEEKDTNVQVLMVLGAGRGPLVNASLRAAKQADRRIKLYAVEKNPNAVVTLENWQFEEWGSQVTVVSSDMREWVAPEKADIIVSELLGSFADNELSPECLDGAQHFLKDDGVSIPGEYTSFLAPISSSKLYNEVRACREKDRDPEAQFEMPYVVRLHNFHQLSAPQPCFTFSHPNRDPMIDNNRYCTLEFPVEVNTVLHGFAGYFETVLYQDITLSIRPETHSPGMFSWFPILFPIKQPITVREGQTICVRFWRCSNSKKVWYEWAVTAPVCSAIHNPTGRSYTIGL
- Sequence (Q9BQA1 whole entry partner): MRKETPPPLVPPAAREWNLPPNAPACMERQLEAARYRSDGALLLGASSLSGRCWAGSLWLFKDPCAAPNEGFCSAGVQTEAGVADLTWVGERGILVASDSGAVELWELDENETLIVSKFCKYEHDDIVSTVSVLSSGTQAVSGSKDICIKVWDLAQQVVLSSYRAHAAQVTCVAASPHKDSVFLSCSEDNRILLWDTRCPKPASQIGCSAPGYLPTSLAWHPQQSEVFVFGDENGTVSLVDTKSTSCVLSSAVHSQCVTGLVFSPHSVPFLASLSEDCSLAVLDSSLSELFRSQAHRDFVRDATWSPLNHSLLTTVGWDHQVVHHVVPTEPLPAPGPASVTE
- assay_protocol: In vitro assay 1a: high throughput mass spectrometer assay of SAH formation, 10 nM enzyme, 60 min
- Type: biochemical
- measurement_conditions: averaged values, PRMT5-MEP50, 10 nM enzyme, read-out: pIC50 Assay 1a (converted)
endpoint_name: IC50 (µM)

Examples with their reported IC50 follow.
- compound: "Nc1ncnc2c1ccn2[C@@H]1O[C@H](COc2ccc3ccnnc3c2)[C@@H](O)[C@H]1O"
  unit_of_measure: "µM"
  IC50: 0.631
- compound: "Nc1ncnc2c1ccn2[C@@H]1O[C@H](COc2cc3ncccc3cc2C(F)(F)F)[C@@H](O)[C@H]1O"
  unit_of_measure: "µM"
  IC50: 0.2

[a] Nc1ncnc2c1ccn2[C@@H]1O[C@H](COc2ccc3cc(C4CCCC4)cnc3c2)[C@@H](O)[C@H]1O
[b] Nc1ncnc2c1ccn2[C@@H]1O[C@H](COc2ccc3cccnc3c2I)[C@@H](O)[C@H]1O
[in] Lab note: record which item had the higher IC50, a or b . To answer, give the label that identifies your chosen option.
[out] b
(b: 2.51 µM, a: 0.126 µM)

[1] Cc1nc(N)c2ccn([C@@H]3O[C@H](COc4ccc5cc(Br)cnc5c4)[C@@H](O)[C@H]3O)c2n1
[2] Cc1cc2c(N)ncnc2n1[C@@H]1O[C@H](COc2ccc3cc(Br)cnc3c2)[C@@H](O)[C@H]1O
[3] Nc1ccc2ccc(OC[C@H]3O[C@@H](n4ccc5c(Cl)ncnc54)[C@H](O)[C@@H]3O)cc2n1
[4] N#Cc1cnc2cc(OC[C@H]3O[C@@H](n4ccc5c(N)ncnc54)[C@H](O)[C@@H]3O)ccc2c1N
[5] Nc1ncnc2c1ccn2[C@@H]1C[C@H](CCc2ccc3ccc(NCC(F)F)nc3c2)[C@@H](O)[C@H]1O
[in] // ranking: key=IC50, reverse=True Form field (ranking): labels in requested order.
[out] 4, 1, 2, 3, 5
(4: 0.501 µM, 1: 0.0794 µM, 2: 0.0398 µM, 3: 0.000631 µM, 5: 0.000251 µM)

[I] Nc1ncnc2c1ccn2[C@@H]1O[C@H](/C=C/c2ccc3cc(Cl)cnc3c2)[C@@H](O)[C@H]1O [Compound 57a]
[II] Nc1ncnc2c1ccn2[C@@H]1O[C@H](COc2cccc3cnccc23)[C@@H](O)[C@H]1O
[in] Hey, between I and II which has a smaller measured IC50? To answer, give the label that identifies your chosen option.
[out] I
